Provenance of the data: patent US20040258656

Target: TGFβ2 (transforming growth factor beta 2) (Homo sapiens) (UniProt P61812)
Sequence: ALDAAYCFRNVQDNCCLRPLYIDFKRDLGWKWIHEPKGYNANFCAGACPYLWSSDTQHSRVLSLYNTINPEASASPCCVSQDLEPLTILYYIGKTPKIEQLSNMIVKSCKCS
Experiment: filter
Conditions: 2'-F C and U; round 0 pool; printed as >10 [M
pKd: −log10 of the molar value.
test.readout: pKd

input: Query (sequence): GGGAGGACGAUGCGGNNNNNNNNNNNNNNNNNNNNNNNNNNNNNNNNNNNNNNNNCAGACGACUCGCCCGA [round 0 40N7 pool] ; field requested: pKd
output: < 5.00

* * *

Target: TGFβ3 (transforming growth factor beta 3) (Homo sapiens) (UniProt P10600)
Sequence: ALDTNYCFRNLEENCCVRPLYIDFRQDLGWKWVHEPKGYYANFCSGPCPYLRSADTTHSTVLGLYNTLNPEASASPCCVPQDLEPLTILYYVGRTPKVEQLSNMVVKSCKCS
Experiment: filter
Conditions: 2'-F C and U; round 0 pool
test.readout: Kd

input: Query (sequence): GGGAGGACGAUGCGGNNNNNNNNNNNNNNNNNNNNNNNNNNNNNNNNNNNNNNNNCAGACGACUCGCCCGA [round 0 40N7 pool] ; field requested: Kd
output: > 10 µM

* * *

Biological target: TGFβ2 (transforming growth factor beta 2) (Homo sapiens) (UniProt P61812)
Sequence: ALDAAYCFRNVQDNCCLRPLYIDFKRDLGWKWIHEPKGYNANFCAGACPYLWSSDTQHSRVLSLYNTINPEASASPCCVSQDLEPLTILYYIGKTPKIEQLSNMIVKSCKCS
Test: filter
Settings: 2'-F C and U; biased round 0 pool, protein excess
test.readout: Kd (nM)
Answer with a number only, understood to be in nM.

input: Provide the documented Kd with TGFβ2 (transforming growth factor beta 2) (Homo sapiens) (UniProt P61812) as the system for GGGAGGACGAUGCGGNNNNNNNNNNNNNNNNNNNNNNNNNNNNNNNNNNCAGACGACUCGCCCGA [34N7.21a-21 biased round 0 pool]
output: 870
